Documented log10 of IC50 across a set of compounds
- EXPERIMENTAL_TARGET: PolQ ATPase enzyme (1-894) (Homo sapiens (Human))
- ASSAY_PROCEDURE: Polθ ATPase enzymatic assay (0.5 nM enzyme concentration), ADP-Glo
- Type: biochemical
- DETAILS: 0.5 nM PolQ ATPase enzyme (1-894); average IC50
- Experimental: PolQ ATPase enzyme (1-894) at 0.5 nM is incubated with a 10-point concentration response of inhibitors for 15 min at rt in the following buffer: 50 mM Tris Cl pH 7.5, 10% glycerol, 5 mM DTT, 10 mM MgCl2, 0.1 mg/ml BSA. […] ATP consumption is measured using the ADP-Glo assay from Promega. Luminescence is read on the Envision and IC50 are determined using the variable slope 4-parameters equation. […]
A difference of one corresponds to tenfold IC50; all values are log10 with IC50 in nM.

Worked set:
COMPOUND: COc1cnc(C(F)F)cc1-c1cc(C#CCC(C)(C)O)ncc1C(=O)Nc1nnc([C@@H]2C[C@H]2c2ccn(C)n2)s1
log10 of IC50: 0.93
--
COMPOUND: COc1cnc(C(F)F)cc1-c1cc(-n2ccc(OC3CCN(C)C3)cc2=O)ncc1C(=O)Nc1nnc(C#CC2CC2)s1 (racemic)
log10 of IC50: -0.07
--
COMPOUND: COc1cnc(C(F)F)cc1-c1cc(-n2ccc(C)cc2=O)ncc1C(=O)Nc1nnc([C@H]2C[C@@H]2C(C)C)s1 (racemic)
log10 of IC50: 0.08
--
COMPOUND: COc1cnc(C(F)F)cc1-c1cc(C#CC(C)(C)N2CCCCC2)ncc1C(=O)Nc1nnc(C#CC2CC2)s1
log10 of IC50: -0.30
--
COMPOUND: COc1cnc(C(F)F)cc1-c1cc(-n2ccc(OC3CCN(C)CC3)cc2=O)ncc1C(=O)Nc1nnc(C#CC2CC2)s1
log10 of IC50: 0.08

Below: the item to evaluate.
Form field log10 of IC50, entry COc1cnc(C(F)F)cc1-c1cc(C#CCN2CCN(C)CC2)ncc1C(=O)Nc1nnc(C#CC2CC2)s1 : 0.00

====

- EXPERIMENTAL_TARGET: PolQ ATPase enzyme (1-894) (Homo sapiens (Human), UniProt O75417)
- Sequence (O75417 1-894): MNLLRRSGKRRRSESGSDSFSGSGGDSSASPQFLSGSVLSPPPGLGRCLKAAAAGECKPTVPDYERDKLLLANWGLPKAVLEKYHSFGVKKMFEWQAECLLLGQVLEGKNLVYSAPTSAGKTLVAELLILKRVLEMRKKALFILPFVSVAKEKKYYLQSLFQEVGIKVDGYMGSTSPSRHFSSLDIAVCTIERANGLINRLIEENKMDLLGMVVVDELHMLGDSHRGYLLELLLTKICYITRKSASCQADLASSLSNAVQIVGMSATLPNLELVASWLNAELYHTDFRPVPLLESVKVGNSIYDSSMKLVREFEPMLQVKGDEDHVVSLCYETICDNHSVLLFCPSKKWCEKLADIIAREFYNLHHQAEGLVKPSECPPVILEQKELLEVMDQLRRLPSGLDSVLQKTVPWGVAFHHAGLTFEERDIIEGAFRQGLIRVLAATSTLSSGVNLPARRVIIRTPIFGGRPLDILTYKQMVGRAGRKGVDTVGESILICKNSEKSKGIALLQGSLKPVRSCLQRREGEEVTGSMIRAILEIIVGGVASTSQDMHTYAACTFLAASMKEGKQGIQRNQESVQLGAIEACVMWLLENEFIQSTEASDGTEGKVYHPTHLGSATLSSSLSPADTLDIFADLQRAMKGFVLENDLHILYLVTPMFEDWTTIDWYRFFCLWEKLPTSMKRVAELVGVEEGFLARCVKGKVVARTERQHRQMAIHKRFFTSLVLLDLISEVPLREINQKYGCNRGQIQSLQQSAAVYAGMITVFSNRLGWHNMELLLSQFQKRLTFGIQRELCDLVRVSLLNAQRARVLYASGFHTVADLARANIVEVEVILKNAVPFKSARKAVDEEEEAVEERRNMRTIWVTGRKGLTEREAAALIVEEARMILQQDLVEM
- ASSAY_PROCEDURE: Polθ ATPase enzymatic assay (0.5 nM enzyme concentration), ADP-Glo
- Type: biochemical
- DETAILS: 0.5 nM PolQ ATPase enzyme (1-894); average IC50
Documented IC50 across a set of compounds
Report only the number, with the unit nM understood.

Worked set:
COMPOUND: COc1cnc(C(F)F)cc1-c1cc(-n2ccc(OC3CCN(C)C3)cc2=O)ncc1C(=O)Nc1ncc(C#CC2CC2)s1 (racemic)
IC50, nM: 1.1
//
COMPOUND: COc1cnc(C(F)F)cc1-c1cc(-n2ccc(C)cc2=O)ncc1C(=O)Nc1nnc(COc2cnn(C)c2)s1
IC50, nM: 6.3
//
COMPOUND: COc1cnc(C(F)F)cc1-c1cc(-n2ccc(C)cc2=O)ncc1C(=O)Nc1nnc(C(C)OC)s1 (racemic)
IC50, nM: 30
//
COMPOUND: COc1cnc(C(F)F)cc1-c1c(C(=O)Nc2nnc(C#CC3CC3)s2)ccc(-c2ccn(C)n2)c1F
IC50, nM: 0.87
//
COMPOUND: C#C[C@H]1CC1c1nnc(NC(=O)c2cnc(-n3ncc(C)cc3=O)cc2-c2cc(C(F)F)ncc2OC)s1 (single isomer, unassigned)
IC50, nM: 0.35

Assay PolQ ATPase enzyme (1-894) (Homo sapiens (Human), UniProt O75417), sample COc1cnc(C(F)F)cc1-c1cc(-n2ccc(C)cc2=O)ncc1C(=O)Nc1nnc(CC(=O)N(C)C)s1 , IC50 read: 40

Assay PolQ ATPase enzyme (1-894) (Homo sapiens (Human), UniProt O75417), sample COc1cc(C)ncc1-c1cc(-c2cc(C(F)F)ncc2OC)c(C(=O)Nc2nnc(C#CC3CC3)s2)cn1 , IC50 read: 0.4

Assay PolQ ATPase enzyme (1-894) (Homo sapiens (Human), UniProt O75417), sample COc1ccc(C(F)(F)F)cc1-c1cnccc1C(=O)Nc1nnc(C2C[C@H]2c2ccc(C#N)cc2)s1 (some centres unmarked) , IC50 read: 0.76

Assay PolQ ATPase enzyme (1-894) (Homo sapiens (Human), UniProt O75417), sample COc1cnc(C(F)F)cc1-c1cc(-n2ccc(C)cc2=O)ncc1C(=O)Nc1nnc(C2CC(C)(C)C2)s1 , IC50 read: 4.3

Assay PolQ ATPase enzyme (1-894) (Homo sapiens (Human), UniProt O75417), sample COc1cnc(C(F)F)cc1-c1cc(C2C[C@@H]2C(=O)N(C)C)ncc1C(=O)Nc1nnc(C#CC2CC2)s1 (mixture of isomers) , IC50 read: 1.9

Assay PolQ ATPase enzyme (1-894) (Homo sapiens (Human), UniProt O75417), sample C#C[C@H]1CC1c1nnc(NC(=O)c2cnc(CC#N)cc2-c2cc(C(F)F)ncc2OC)s1 (some centres unmarked) , IC50 read: 5.8

Assay PolQ ATPase enzyme (1-894) (Homo sapiens (Human), UniProt O75417), sample COc1cnc(C(F)F)cc1-c1cc(-n2cccc(C)c2=O)ncc1C(=O)Nc1nnc([C@H]2C[C@@H]2C(F)(F)F)s1 , IC50 read: 0.45
